Measured on: P/Q-type channels (α1A+α2δ+β1b cDNA subunits)
Assay protocol: Whole cell patch clamp, tonic and frequency dependent block, P/Q-type channels in HEK 293 (Example 5)
Assay type: cell-based
Setup conditions: α1A (P/Q-type), 100 nM, 0.03 Hz
Measurement label: % Block (100 nM) 0.03 Hz (%)
Write the value in % as a bare number.

Solved entries (count: 5):
1) O=C(CC(c1ccccc1)c1ccccc1)N1CCN(C(c2ccccc2)c2ccccc2)CC1 [39-1-B4]
31
2) Nc1ccc(/C=C/C(=O)N2CCN(C(=O)CCCCC(c3ccccc3)c3ccccc3)CC2)cc1 [SH-134]
20
3) O=C(CCCCC(c1ccccc1)c1ccccc1)N1CCC(NCC2CCCCC2)CC1 [JM-G-10]
28
4) COc1cc(C(=O)N2CCN(C(c3ccc(F)cc3)c3ccc(F)cc3)CC2)cc(OC)c1OC [39-36-2]
35
5) O=C(CCCCC(c1ccccc1)c1ccccc1)N1CCN(C/C=C/c2ccccc2)CC1 [MC-34D]
31

Next up:
Need % Block (100 nM) 0.03 Hz, item COc1ccc(/C=C/C(=O)N2CCN(C(=O)CCCCC(c3ccccc3)c3ccccc3)CC2)cc1 [SH-123A]
29

====

Entries and their pIC50
Measured on: rat α1B+α2b+β1b channels (N-type channels) (Rattus norvegicus, UniProt Q02294)
Sequence (Q02294 whole entry): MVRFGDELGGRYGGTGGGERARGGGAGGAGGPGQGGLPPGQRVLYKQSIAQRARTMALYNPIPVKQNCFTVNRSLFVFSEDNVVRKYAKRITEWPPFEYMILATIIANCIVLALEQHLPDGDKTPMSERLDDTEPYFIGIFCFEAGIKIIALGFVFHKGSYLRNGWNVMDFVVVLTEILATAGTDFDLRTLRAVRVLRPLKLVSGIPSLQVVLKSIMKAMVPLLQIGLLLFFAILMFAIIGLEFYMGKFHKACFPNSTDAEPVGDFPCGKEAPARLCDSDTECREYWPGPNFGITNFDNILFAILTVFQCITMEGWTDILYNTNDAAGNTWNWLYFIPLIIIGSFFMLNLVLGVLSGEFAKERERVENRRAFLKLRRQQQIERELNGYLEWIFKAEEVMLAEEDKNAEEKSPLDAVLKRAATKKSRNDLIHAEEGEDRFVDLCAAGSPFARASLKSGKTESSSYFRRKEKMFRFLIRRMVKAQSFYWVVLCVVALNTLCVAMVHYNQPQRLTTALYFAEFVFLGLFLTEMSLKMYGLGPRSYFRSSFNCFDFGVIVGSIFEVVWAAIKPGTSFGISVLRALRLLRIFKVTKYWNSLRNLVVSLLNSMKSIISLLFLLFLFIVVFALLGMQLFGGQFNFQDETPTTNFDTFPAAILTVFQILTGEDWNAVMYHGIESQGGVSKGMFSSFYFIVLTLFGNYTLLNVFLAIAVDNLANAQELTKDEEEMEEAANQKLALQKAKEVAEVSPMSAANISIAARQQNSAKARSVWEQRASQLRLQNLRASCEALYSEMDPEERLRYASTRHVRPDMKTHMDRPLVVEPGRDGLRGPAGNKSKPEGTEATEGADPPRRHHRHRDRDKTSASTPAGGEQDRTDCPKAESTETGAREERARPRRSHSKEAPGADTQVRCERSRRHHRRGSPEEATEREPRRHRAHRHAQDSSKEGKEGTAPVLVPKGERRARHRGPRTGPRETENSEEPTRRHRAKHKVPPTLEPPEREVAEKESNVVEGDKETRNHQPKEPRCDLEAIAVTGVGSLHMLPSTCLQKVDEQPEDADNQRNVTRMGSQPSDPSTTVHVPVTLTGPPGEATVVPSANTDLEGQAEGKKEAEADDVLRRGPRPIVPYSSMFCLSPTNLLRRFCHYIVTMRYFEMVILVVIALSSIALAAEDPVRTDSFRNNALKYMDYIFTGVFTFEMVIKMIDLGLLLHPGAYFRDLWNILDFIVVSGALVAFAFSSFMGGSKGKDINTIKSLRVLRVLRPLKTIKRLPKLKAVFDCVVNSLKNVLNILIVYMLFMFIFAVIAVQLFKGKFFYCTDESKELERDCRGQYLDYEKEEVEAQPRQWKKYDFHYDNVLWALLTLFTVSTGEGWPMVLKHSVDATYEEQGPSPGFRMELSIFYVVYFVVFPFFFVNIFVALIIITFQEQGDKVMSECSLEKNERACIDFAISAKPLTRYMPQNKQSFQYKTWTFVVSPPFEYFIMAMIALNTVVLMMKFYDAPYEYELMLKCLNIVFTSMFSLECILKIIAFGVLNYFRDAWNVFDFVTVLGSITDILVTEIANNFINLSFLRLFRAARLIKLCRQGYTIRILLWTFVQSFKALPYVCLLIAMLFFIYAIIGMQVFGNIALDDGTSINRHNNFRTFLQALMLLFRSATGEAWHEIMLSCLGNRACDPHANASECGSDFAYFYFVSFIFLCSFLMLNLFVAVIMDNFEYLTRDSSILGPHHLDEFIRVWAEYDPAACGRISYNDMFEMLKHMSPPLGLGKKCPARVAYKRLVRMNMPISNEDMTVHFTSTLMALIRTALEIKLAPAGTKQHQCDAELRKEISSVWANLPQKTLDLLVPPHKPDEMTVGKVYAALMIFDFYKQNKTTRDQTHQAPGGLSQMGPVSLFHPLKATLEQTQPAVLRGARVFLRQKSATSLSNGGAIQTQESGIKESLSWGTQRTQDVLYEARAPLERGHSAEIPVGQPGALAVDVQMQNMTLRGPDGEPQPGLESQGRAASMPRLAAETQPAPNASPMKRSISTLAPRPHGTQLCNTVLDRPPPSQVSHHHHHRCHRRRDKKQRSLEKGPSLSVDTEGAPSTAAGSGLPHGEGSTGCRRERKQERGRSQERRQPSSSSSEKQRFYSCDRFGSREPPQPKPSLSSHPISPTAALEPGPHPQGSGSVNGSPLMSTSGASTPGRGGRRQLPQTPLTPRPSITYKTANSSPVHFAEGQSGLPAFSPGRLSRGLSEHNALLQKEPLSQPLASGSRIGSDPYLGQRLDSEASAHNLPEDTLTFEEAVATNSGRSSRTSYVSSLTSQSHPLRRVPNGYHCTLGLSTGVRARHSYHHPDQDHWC
Sequence (P54290 25-944 partner limits assumed): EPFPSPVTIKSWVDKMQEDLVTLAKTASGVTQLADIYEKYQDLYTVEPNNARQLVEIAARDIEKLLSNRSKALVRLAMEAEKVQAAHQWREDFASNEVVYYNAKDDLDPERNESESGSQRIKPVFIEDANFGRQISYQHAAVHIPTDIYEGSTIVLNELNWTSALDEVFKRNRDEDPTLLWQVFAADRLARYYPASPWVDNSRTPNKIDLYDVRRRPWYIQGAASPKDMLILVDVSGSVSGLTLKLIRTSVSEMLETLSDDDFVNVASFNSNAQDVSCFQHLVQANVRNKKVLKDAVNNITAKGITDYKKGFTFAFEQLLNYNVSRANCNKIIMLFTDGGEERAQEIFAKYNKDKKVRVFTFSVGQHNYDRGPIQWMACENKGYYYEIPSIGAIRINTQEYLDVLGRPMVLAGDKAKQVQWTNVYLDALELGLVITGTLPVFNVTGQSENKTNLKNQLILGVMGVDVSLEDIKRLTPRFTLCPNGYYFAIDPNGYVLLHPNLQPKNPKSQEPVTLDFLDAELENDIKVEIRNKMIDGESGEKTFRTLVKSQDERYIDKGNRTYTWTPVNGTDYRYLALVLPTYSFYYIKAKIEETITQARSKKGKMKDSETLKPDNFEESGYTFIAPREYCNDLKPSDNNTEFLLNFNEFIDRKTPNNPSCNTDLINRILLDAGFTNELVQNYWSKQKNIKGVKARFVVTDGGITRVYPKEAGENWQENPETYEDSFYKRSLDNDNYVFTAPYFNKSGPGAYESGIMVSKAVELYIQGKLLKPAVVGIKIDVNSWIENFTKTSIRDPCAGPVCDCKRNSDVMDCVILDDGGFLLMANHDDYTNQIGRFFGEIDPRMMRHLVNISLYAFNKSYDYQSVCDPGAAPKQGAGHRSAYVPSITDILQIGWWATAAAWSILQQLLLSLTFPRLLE
Sequence (P54290 945-1091 partner limits assumed): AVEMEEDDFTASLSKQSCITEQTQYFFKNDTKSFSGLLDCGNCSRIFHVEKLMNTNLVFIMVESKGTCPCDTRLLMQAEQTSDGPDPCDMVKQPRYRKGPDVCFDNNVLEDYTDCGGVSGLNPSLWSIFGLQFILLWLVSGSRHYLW
Sequence (P54283 whole entry partner): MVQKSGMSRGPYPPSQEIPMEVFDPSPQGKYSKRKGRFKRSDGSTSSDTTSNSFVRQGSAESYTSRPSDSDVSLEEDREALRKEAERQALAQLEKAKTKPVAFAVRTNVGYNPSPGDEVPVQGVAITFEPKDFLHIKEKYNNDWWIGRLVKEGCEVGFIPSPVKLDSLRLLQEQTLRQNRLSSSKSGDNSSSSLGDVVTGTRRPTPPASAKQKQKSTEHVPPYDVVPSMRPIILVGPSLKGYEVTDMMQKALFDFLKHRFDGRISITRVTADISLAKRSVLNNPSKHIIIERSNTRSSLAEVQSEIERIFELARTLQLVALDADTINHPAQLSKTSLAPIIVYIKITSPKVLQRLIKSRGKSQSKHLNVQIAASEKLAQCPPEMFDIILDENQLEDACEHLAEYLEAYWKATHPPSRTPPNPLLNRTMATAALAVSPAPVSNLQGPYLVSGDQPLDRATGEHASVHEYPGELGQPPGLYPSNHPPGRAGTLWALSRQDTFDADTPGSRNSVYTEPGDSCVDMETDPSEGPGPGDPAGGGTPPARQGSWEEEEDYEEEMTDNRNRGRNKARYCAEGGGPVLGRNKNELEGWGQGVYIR
Assay protocol: Whole cell patch recordings, N-type calcium channel block (Examples 1 and 4)
Setup conditions: block of N-type calcium channels, HEK cells, 5 mM barium as charge carrier
Reminder that pIC50 is minus the log10 of a molar concentration.

Solved entries (count: 2):
1) c1ccc(CCN2CCN(CCCCCC(c3ccccc3)C3CCCCC3)CC2)cc1 (stereo not shown) [Φ, Cy; CH(CH2)5; N; 2; Φ]
5.51
2) c1ccc(C(CN2CCN(CC3CCCCC3)CC2)C2CCCCC2)cc1 (stereo not shown) [Φ, Cy; CHCH2; N; 1; Cy]
4.69

Next up:
Need pIC50, item O=C(CCCCC(c1ccccc1)C1CCCCC1)N1CCN(CC=Cc2ccccc2)CC1 (stereo not shown) [Φ, Cy; CH(CH2)4CO; N; 1; CH═CHΦ]
5.41

====

Measured on: L-type channels (α1C+α2δ+β1b cDNA subunits)
Construct: other: α1C (L-type), 100 nM, 0.03 Hz; other: α1C (L-type), 100 nM, 0.2 Hz; other: α1C (L-type), 0.03 Hz; other: α1C (L-type), 0.2 Hz
Assay protocol: Whole cell patch clamp, tonic and frequency dependent block, L-type channels in HEK 293 (Example 5)
Format: cell-based
Setup conditions: α1C (L-type), 100 nM, 0.03 Hz
Measurement label: % Block (100 nM) 0.03 Hz (%)
Write the value in % as a bare number.

Solved entries (count: 3):
1. O=C(CC(c1ccccc1)c1ccccc1)N1CCN(C(c2ccccc2)c2ccccc2)CC1
19
2. COc1cc(CN2CCN(CCCCCC(c3ccc(F)cc3)c3ccc(F)cc3)CC2)cc(OC)c1OC
15
3. Nc1ccc(/C=C/C(=O)N2CCN(C(=O)CCCCC(c3ccccc3)c3ccccc3)CC2)cc1
11

Need % Block (100 nM) 0.03 Hz, item COc1cc(C(=O)N2CCN(C(c3ccc(F)cc3)c3ccc(F)cc3)CC2)cc(OC)c1OC
11

====

Entries and their IC50
Measured on: rat α1B+α2b+β1b channels (N-type channels) (Rattus norvegicus, UniProt Q02294)
Assay protocol: Whole cell patch recordings, N-type calcium channel block (Examples 1 and 4)
Setup conditions: block of N-type calcium channels, HEK cells, 5 mM barium as charge carrier

Solved entries (count: 3):
1. c1ccc(C(CN2CCC(NCC3CCCCC3)CC2)c2ccccc2)cc1
3 to 4 µM
2. c1ccc(CN2CCN(CC(c3ccccc3)C3CCCCC3)CC2)cc1 (stereo not shown)
~5 µM
3. c1ccc(C(CCN2CCC(NCC3CCCCC3)CC2)c2ccccc2)cc1
2 to 3 µM

Need IC50, item c1ccc(CNC2CCN(CC(c3ccccc3)c3ccccc3)CC2)cc1
~3 µM
